# TEST_SUMMARY: AUC (0 to t) in Sprague-Dawley rat at 1 mg/kg, iv measured up to 24 hrs by LC-MS/MS analysis
# Format: ADME, organism-based
# Parameters: route intravenous, dose 1 mg/kg, time <=24
# CONDITION_PARAMETERS: in vivo
TEST_READOUT: AUC(0-t) at 24 h (ng·h/mL)
The reply should be a number in ng·h/mL, with the unit left off.

Task: What AUC(0-t) at 24 h value was documented for this compound, CS(=O)(=O)O.FC(F)(F)c1cc2cc(c1)Nc1nc(nc(-c3cccc(C(F)(F)F)n3)n1)NCCCCCC2 ?
Result: 1370

====

Measured pIC50 of individual entries
# TESTED_TARGET: Isocitrate dehydrogenase [NADP], mitochondrial (Homo sapiens, UniProt P48735, R140Q)
# Sequence (P48735 40-452 R140Q limits assumed): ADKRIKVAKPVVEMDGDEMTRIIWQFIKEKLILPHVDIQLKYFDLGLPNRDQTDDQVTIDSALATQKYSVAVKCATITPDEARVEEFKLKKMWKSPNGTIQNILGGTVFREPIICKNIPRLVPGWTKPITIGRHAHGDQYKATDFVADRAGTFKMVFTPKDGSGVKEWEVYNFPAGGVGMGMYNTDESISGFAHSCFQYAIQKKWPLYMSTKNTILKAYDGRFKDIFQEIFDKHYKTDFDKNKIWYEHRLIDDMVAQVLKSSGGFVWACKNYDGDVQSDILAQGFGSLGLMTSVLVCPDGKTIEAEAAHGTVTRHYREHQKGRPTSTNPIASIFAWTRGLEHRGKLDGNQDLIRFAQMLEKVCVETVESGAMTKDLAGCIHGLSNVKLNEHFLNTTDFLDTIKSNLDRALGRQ
# TEST_SUMMARY: Inhibition of IDH2 R140Q mutant (unknown origin) assessed as reduction in NADPH consumption using alpha-ketoglutarate and NADPH as substrate preincubated with enzyme for 15 mins followed by substrate addition by fluorescence based assay
In simple prose, pIC50 is minus the logarithm base ten of a concentration in moles per litre.

// known answers, use as guide
Cc1cc2cc(c1)Nc1nc(nc(-c3cccc(C(F)(F)F)n3)n1)NCCOC/C=C\C2; 7.42
CC(C)(O)CNc1nc(Nc2ccnc(C(F)(F)F)c2)nc(-c2cccc(C(F)(F)F)n2)n1 [ENASIDENIB]; 7.44
Cc1cc2cc(c1)Nc1nc(nc(-c3cccc(C(F)(F)F)n3)n1)NCCOCCCC2; 7.65
Fc1cc2cc(c1)Nc1nc(nc(-c3cccc(C(F)(F)F)n3)n1)NCCOC/C=C\C2; 7.53

Task: What pIC50 value was documented for this compound, C=CCOC(C)(C)CNc1nc(Nc2ccccc2)nc(-c2cccc(C(F)(F)F)n2)n1 ?
Result: 7.34

====

Measured IC50 of individual entries
# TESTED_TARGET: Isocitrate dehydrogenase [NADP], mitochondrial (Homo sapiens, UniProt P48735, R140Q)
# TEST_SUMMARY: Inhibition of IDH2 R140Q mutant (unknown origin) assessed as reduction in NADPH consumption using alpha-ketoglutarate and NADPH as substrate preincubated with enzyme for 15 mins followed by substrate addition by fluorescence based assay
The reply should be a number in nM, with the unit left off.

FC(F)(F)c1cc2cc(c1)Nc1nc(nc(-c3cccc(C(F)(F)F)n3)n1)NCCCCCCCC2; 37.2
CC(C)(O)CNc1nc(Nc2ccccc2)nc(-c2cccc(C(F)(F)F)n2)n1; 98.2
FC(F)(F)c1cc2cc(c1)OCCCCCNc1nc(nc(-c3cccc(C(F)(F)F)n3)n1)N2; 51
FC(F)(F)c1cc2cc(c1)Nc1nc(nc(-c3cccc(C(F)(F)F)n3)n1)NCCCCCCC2; 19.9

Task: Under Isocitrate dehydrogenase [NADP], mitochondrial (Homo sapiens, UniProt P48735, R140Q): IC50 value of FC(F)(F)c1cc2cc(c1)Nc1nc(nc(-c3cccc(C(F)(F)F)n3)n1)NCCCCC/C=C/C2 ?
Result: 37.6

====

# TEST_SUMMARY: MRT (0 to t) in Sprague-Dawley rat at 10 mg/kg, po measured upto 24 hrs by LC-MS/MS analysis
# Format: ADME, organism-based
# CONDITION_PARAMETERS: in vivo
TEST_READOUT: MRT last at 24 h (h)
The reply should be a number in h, with the unit left off.

Task: What MRT last at 24 h value was documented for this compound, CS(=O)(=O)O.FC(F)(F)c1cc2cc(c1)Nc1nc(nc(-c3cccc(C(F)(F)F)n3)n1)NCCCCCC2 ?
Result: 6.03
